assay: Time taken by the compound to reach its maximum concentration in plasma upon p.o. dose of 10 mg/kg in rats; assay type: ADME, organism-based; design: dose 10 mg/kg, route oral; conditions: rat, po
parameterMeasured: Tmax (h)
Quick note: give the figure in h, leave out the unit.

Req: Which Tmax value belongs to Cc1c(CC(=O)O)c2cc(F)ccc2n1S(=O)(=O)c1ccc(S(C)(=O)=O)cc1 ?
Resp: 1.8

====

test: Area under curve for the compound upon p.o. dose of 10 mg/kg in rats; format: ADME, organism-based; design: dose 10 mg/kg, route oral; conditions: rat, in vivo, po
parameterMeasured: AUC
Record the result as number plus unit.

Req: What value of measured AUC is listed for Cc1c(CC(=O)O)c2cc(F)ccc2n1S(=O)(=O)c1ccc(S(C)(=O)=O)cc1 ?
Resp: 3480 ng·h/mL

Value source: ChEMBL document CHEMBL1141097
